Target: hMC1bR (Homo sapiens, UniProt Q01726)
Sequence (Q01726 whole entry): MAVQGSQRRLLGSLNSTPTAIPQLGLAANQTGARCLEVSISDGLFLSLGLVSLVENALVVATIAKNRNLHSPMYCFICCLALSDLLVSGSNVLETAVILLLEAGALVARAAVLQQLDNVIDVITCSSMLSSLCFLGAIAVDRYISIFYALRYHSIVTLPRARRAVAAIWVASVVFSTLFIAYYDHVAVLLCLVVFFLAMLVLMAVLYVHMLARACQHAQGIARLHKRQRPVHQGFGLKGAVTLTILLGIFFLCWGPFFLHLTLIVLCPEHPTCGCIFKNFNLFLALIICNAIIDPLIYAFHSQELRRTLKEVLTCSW
Experiment: cAMP functional assay (agonist)
MEASUREMENT NAME: pEC50
Note on units: pEC50 is unitless, being -log10 of a concentration expressed in mol/L.

Query: Sample CC[C@H](NC(C)=O)c1cc(Cl)ccc1C1CCN(C(=O)[C@@H]2CN(C(C)(C)C)C[C@H]2c2ccc(F)cc2F)CC1 — what was its pEC50?
Response: 5.77

---

Target: hMC5R (Homo sapiens, UniProt P33032)
Sequence (P33032 whole entry): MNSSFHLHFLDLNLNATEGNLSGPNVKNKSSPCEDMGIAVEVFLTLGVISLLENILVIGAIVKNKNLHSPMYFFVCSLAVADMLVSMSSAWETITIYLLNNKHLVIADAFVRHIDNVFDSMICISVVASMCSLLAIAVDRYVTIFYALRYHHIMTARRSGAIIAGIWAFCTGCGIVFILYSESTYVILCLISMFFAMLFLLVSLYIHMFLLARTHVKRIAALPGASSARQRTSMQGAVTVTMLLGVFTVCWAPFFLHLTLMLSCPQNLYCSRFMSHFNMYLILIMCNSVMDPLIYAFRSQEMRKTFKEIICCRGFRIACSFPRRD
MEASUREMENT NAME: IC50 (µM)
Note: unit µM is implicit; provide only the numeric part.

Query: Lab request: please report IC50 under test system hMC5R (Homo sapiens, UniProt P33032) for CC[C@H](NC(C)=O)c1cc(Cl)ccc1C1CCN(C(=O)[C@@H]2CN(C(C)(C)C)C[C@H]2c2ccc(F)cc2F)CC1 [Compound A]
Response: 1.6

From: patent US20080200376A1
